# selectivity ratio per entry
- method: Therapeutic index, ratio of MHC for human RBC to geometric mean of peptide MIC for Enterococcus faecalis ATCC 29212
- Assay type: toxicity
- measurement.parameters: human red blood cells (RBC), read-out: TI
Where a SMILES comes first, the peptide text is derived from it.

{"columns": ["compound", "selectivity ratio"],
 "data": [
  ["CC(C)[C@H](N)C(=O)N[C@@H](CS)C(=O)N[C@@H](CCCNC(=N)N)C(=O)N[C@@H](CCCCN)C(=O)N1CCC[C@H]1C(=O)N[C@H](C(=O)N[C@H](C(=O)N[C@@H](CS)C(=O)N[C@@H](CCCNC(=N)N)C(=O)N[C@@H](CCCCN)C(=O)N1CCC[C@H]1C(=O)N[C@H](C(=O)N[C@H](C(=O)N[C@@H](CS)C(=O)N[C@@H](CCCNC(=N)N)C(=O)N[C@@H](CCCCN)C(=O)N1CCC[C@H]1C(=O)N[C@H](C(N)=O)C(C)C)C(C)C)C(C)C)C(C)C)C(C)C (H-VCRKPVVCRKPVVCRKPV-NH2)", 2],
  ["CC[C@H](C)[C@H](N)C(=O)N[C@H](C(=O)N[C@@H](CS)C(=O)N[C@@H](CCCNC(=N)N)C(=O)N[C@@H](CCCCN)C(=O)N1CCC[C@H]1C(=O)N[C@H](C(=O)N[C@H](C(=O)N[C@@H](CS)C(=O)N[C@@H](CCCNC(=N)N)C(=O)N[C@@H](CCCCN)C(=O)N1CCC[C@H]1C(=O)N[C@H](C(=O)N[C@H](C(N)=O)[C@@H](C)CC)[C@@H](C)CC)[C@@H](C)CC)[C@@H](C)CC)[C@@H](C)CC (H-IICRKPIICRKPII-NH2)", 2],
  ["CC[C@H](C)[C@H](N)C(=O)N[C@@H](CS)C(=O)N[C@@H](CCCNC(=N)N)C(=O)N[C@@H](CCCCN)C(=O)N1CCC[C@H]1C(=O)N[C@H](C(=O)N[C@H](C(=O)N[C@@H](CS)C(=O)N[C@@H](CCCNC(=N)N)C(=O)N[C@@H](CCCCN)C(=O)N1CCC[C@H]1C(=O)N[C@H](C(N)=O)[C@@H](C)CC)[C@@H](C)CC)[C@@H](C)CC (H-ICRKPIICRKPI-NH2)", 2],
  ["CC(C)[C@H](N)C(=O)N[C@@H](CS)C(=O)N[C@@H](CCCNC(=N)N)C(=O)N[C@@H](CCCCN)C(=O)N1CCC[C@H]1C(=O)N[C@H](C(=O)N[C@H](C(=O)N[C@@H](CS)C(=O)N[C@@H](CCCNC(=N)N)C(=O)N[C@@H](CCCCN)C(=O)N1CCC[C@H]1C(=O)N[C@H](C(N)=O)C(C)C)C(C)C)C(C)C (H-VCRKPVVCRKPV-NH2)", 2],
  ["CC[C@H](C)[C@H](N)C(=O)N[C@H](C(=O)N[C@H](C(=O)N[C@@H](CS)C(=O)N[C@@H](CCCNC(=N)N)C(=O)N[C@@H](CCCCN)C(=O)N1CCC[C@H]1C(=O)N[C@H](C(=O)N[C@H](C(=O)N[C@@H](CS)C(=O)N[C@@H](CCCNC(=N)N)C(=O)N[C@@H](CCCCN)C(=O)N1CCC[C@H]1C(=O)N[C@H](C(=O)N[C@H](C(=O)N[C@H](C(N)=O)[C@@H](C)CC)[C@@H](C)CC)[C@@H](C)CC)[C@@H](C)CC)[C@@H](C)CC)[C@@H](C)CC)[C@@H](C)CC (H-IIICRKPIICRKPIII-NH2)", 2],
  ["CC[C@H](C)[C@H](N)C(=O)N[C@@H](CS)C(=O)N[C@@H](CCCNC(=N)N)C(=O)N[C@@H](CCCCN)C(=O)N1CCC[C@H]1C(=O)N[C@H](C(=O)N[C@H](C(=O)N[C@@H](CS)C(=O)N[C@@H](CCCNC(=N)N)C(=O)N[C@@H](CCCCN)C(=O)N1CCC[C@H]1C(=O)N[C@H](C(=O)N[C@H](C(=O)N[C@@H](CS)C(=O)N[C@@H](CCCNC(=N)N)C(=O)N[C@@H](CCCCN)C(=O)N1CCC[C@H]1C(=O)N[C@H](C(N)=O)[C@@H](C)CC)[C@@H](C)CC)[C@@H](C)CC)[C@@H](C)CC)[C@@H](C)CC (H-ICRKPIICRKPIICRKPI-NH2)", 2]
]}
